Recorded pIC50 for compounds tested on BTK (Homo sapiens, UniProt Q06187), drawn from a number of studies.
Sequence (Q06187 whole entry): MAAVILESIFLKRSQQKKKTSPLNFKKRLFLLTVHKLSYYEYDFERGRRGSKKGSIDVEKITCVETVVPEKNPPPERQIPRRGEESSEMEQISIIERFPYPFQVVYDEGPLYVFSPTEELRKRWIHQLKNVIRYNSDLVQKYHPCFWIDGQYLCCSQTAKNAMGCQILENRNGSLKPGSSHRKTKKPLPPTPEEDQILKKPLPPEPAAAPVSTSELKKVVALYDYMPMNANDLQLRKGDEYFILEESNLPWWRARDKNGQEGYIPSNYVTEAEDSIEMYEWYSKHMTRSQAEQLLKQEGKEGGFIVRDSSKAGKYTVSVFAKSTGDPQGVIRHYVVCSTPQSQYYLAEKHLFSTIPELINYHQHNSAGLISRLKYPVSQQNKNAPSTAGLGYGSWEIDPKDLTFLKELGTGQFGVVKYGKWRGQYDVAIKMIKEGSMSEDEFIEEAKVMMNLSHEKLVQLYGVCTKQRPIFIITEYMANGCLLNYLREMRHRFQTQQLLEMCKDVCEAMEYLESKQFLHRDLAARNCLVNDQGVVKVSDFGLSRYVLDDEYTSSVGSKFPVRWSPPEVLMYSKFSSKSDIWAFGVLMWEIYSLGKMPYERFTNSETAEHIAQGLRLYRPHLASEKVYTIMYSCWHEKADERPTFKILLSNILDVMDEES
pIC50: −log10 of the molar value.

{"compound": "C=CC(=O)N1CC[C@]2(C1)C[C@H](n1c(NC(=O)c3ccc(-c4cnn(C)c4)s3)nc3ccccc31)C2", "pIC50": 8.33}
{"compound": "C=CC(=O)N1CC[C@]2(C1)C[C@H](n1c(NC(=O)c3ccc(-c4cnco4)s3)nc3cc(N(C)C(=O)C4CC4)ccc31)C2", "pIC50": 9.24}
{"compound": "C=CC(=O)N1CC2CC1C(n1nc(-c3ccc(NC(=O)c4ccccn4)cc3)c3c(N)ncnc31)C2 (centres unmarked)", "pIC50": 8.09}
{"compound": "O=C(CNc1cccc2c1CCC2)N[C@@H]1CCCN(c2ncnc3[nH]ccc23)C1", "pIC50": "6.00 to 7.00"}
{"compound": "O=C(Nc1ccccc1)C(=O)NC1CCCN(c2ncnc3[nH]ccc23)C1 (centres unmarked)", "pIC50": "< 5.00"}
{"compound": "C=CC(=O)N(C)CCn1nc(-c2ccc(Oc3ccccc3)cc2)c(C(N)=O)c1N", "pIC50": "> 7.00"}

Input: # pIC50 lookup, item "Cn1cc(-c2cn3nccc3c(-c3ccc(CNC(=O)c4noc(C5(C)CC5)n4)c(F)c3)n2)cn1"
Output: > 9.00

Input: Fill blank: measured pIC50 of the compound "Cn1cc(-c2cnc3[nH]cc(C(=O)c4cc(NS(=O)(=O)C5CCCCC5)ccc4F)c3c2)cn1" is ____.
Output: ≥ 5.00
